# studySystem: T1, human galectin-10-His (human)
# T1 construct: The last M of the tag may be Met1 of galectin-10; also called humanGal10-His; hGal10
# T1 chain: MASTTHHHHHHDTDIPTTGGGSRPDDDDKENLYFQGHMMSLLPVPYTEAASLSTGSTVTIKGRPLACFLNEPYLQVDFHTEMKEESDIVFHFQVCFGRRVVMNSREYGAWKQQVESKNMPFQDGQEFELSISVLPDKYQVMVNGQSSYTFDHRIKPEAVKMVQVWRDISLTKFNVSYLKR
# testName: ELISA, coated antigen 0.5 ug/mL

>  <binder>
7B07 mouse IgG1 (antibody, V domains shown, VH and VL cloned in frame with mouse IgG1 constant domains; also called 7B07 mIgG1) VH: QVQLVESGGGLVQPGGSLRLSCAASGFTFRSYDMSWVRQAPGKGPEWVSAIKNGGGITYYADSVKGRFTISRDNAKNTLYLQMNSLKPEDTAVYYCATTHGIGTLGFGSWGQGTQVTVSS VL: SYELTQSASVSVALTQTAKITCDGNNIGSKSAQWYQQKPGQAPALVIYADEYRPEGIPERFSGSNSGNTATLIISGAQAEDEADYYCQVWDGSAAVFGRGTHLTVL

>  <valueUnit>
nM

>  <EC50>
0.57

$$$$

Values were extracted from patent US20190367619A1.
